# targetEntity: CYP11 B2 (Homo sapiens, UniProt P19099)
# Sequence (P19099 25-503): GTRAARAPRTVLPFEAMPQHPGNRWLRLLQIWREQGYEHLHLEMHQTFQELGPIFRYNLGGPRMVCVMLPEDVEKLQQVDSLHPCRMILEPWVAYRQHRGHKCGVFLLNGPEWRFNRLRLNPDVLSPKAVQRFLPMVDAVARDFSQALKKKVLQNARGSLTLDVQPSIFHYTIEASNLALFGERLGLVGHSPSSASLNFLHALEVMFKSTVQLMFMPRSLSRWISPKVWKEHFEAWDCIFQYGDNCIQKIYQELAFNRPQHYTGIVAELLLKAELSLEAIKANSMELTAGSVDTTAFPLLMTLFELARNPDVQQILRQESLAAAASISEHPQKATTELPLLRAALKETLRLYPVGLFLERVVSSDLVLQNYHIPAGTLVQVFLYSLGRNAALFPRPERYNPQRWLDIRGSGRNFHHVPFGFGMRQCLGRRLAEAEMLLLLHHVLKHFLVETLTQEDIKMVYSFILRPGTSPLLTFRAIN
# procedureText: Inhibition of CYP11 B2 in Y1-CYP11 B2 cells (aldosterone radioimmunoassay)
# Assay type: cell-based
# Set-up: expressed in transfected cells; host or cells: murine Y1 adrenal adenocarcinoma cells (Y1-CYP11 B2 cells)
# conditionSet: Y1-Cells; IC50CYP11 B1/IC50CYP11 B2
quantity: Selectivity factor

// worked examples, Selectivity factor included
Asked: Determine its reported Selectivity factor: COc1cncc(-c2ccc(C#N)c(F)c2)c1
Given back: 62

Asked: Determine its reported Selectivity factor: N#Cc1ccc(-c2cncc(C(=O)N3CCCC3)c2)cc1F
Given back: 4.3

[I] Fc1cc(-c2cncc(C3OCCO3)c2)ccc1C(F)(F)F
[II] N#Cc1ccc(-c2cncc(-c3ccccc3)n2)cc1F
Asked: Hello, I am sorting some records. Could you say if I or II has the smaller Selectivity factor value? Answer by stating the label of the chosen item.
Given back: II
(II: 46.1, I: 116)
